- System: HIV-1 RT (Human immunodeficiency virus type 1 group M subtype B)
- Protocol details: In vitro inhibition of HIV-1 RT (kinetic analysis)
- Type: biochemical
Can you tell me Ki for the items I'm about to list?

# annotated cases, reported Ki shown
Substance	Ki
5′-gtggtgggtgggtgggtggtgggtggtggtgtgggtgggtggtg-3′ [I100-21]	1 nM
5′-gttgggggttgttggtggggtggtgg-3′ [I100-12] (GTTGGGGGTTGTTGGTGGGGTGGTGG; phosphorothioate backbone, further chemistry not given here) [PT version of I100-00]	5 nM
5′-gtggtgggtgggtgggtggtgggtggtggttgtgggtgggtggtg-3′ [I100-07]	137 nM

Dear reader, for each entry below, please note its Ki.
1. 5′-gtggtgggtgggtgggt-3′ (GTGGTGGGTGGGTGGGT; phosphodiester, 3'-propanolamine, further chemistry not given here) [I100-15, 17 mer PD, 3′-propanolamine]
2. 5′-gttgggggttgttggtggggtggtgg-3′ [I100-00] (DNA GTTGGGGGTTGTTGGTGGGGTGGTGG; phosphorodiamidate backbone, further chemistry not given here) [26 mer PD]

1. > 5000 nM
2. 370 nM
